Data origin, for the record: the supplement of paper PMC11061612

- Tested on: BV-173 (Chronic Myelogenous Leukemia);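 further: after 72 h of two-drug dosing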
- method_description: Bliss excess, mean over the matrix (fraction); higher = more synergy
Assign class by Bliss excess: not lower than -0.04 means y; lower than -0.04 means n.

{"compound": "CN(CCO)CC[C@H](CSc1ccccc1)Nc1ccc(S(=O)(=O)NC(=O)c2ccc(N3CCC([C@@H](O)c4ccccc4-c4ccc(Cl)cc4)CC3)cc2)cc1S(=O)(=O)C(F)(F)F [AZD4320] + Cn1cnc2c(F)c(Nc3ccc(Br)cc3Cl)c(C(=O)NOCCO)cc21 [Selumetinib] (first compound max 1 µM, 7x7, partner max 3 µM)", "assigned_category": "y"}
{"compound": "COc1nnc2ccc(N3CCC(c4ccc(OCCN5CCN(C)C(=O)[C@H]5C)cc4)CC3)nn12 [AZD5153] + C[C@@H]1COCCN1C2=NC(=NC(=C2)C3(CC3)[S@](=N)(=O)C)C4=C5C=CNC5=NC=C4 [AZD6738] (first compound max 1 µM, 7x7, partner max 10 µM)", "assigned_category": "n"}
{"compound": "CC1(C)CCC(CN2CCN(c3ccc(C(=O)NS(=O)(=O)c4ccc(NCC5CCOCC5)c([N+](=O)[O-])c4)c(Oc4cnc5[nH]ccc5c4)c3)CC2)=C(c2ccc(Cl)cc2)C1 [Venetoclax] + Cc1cc2ncnn2cc1Nc1ncc2c(n1)n(C1CCOCC1)c(=O)n2C [AZD7648] (first compound max 1 µM, 7x7, partner max 10 µM)", "assigned_category": "n"}
{"compound": "COc1cccc(OCCCN)c1-c1cc(Nc2cnc(C#N)cn2)n[nH]1 [Prexasertib] + CCc1c2c(nc3ccc(O)cc13)-c1cc3c(c(=O)n1C2)COC(=O)[C@]3(O)CC [SN-38] (first compound max 1 µM, 7x7, partner max 0.3 µM)", "assigned_category": "n"}

Bliss excess >= -0.04 for COc1nnc2ccc(N3CCC(c4ccc(OCCN5CCN(C)C(=O)[C@H]5C)cc4)CC3)nn12 [AZD5153] + C=CCn1c(=O)c2cnc(Nc3ccc(N4CCN(C)CC4)cc3)nc2n1-c1cccc(C(C)(C)O)n1 [AZD1775] (first compound max 1 µM, partner max 1 µM) ?
y

Bliss excess >= -0.04 for CN(CCO)CC[C@H](CSc1ccccc1)Nc1ccc(S(=O)(=O)NC(=O)c2ccc(N3CCC([C@@H](O)c4ccccc4-c4ccc(Cl)cc4)CC3)cc2)cc1S(=O)(=O)C(F)(F)F [AZD4320] + Cc1cc2ncnn2cc1Nc1ncc2c(n1)n(C1CCOCC1)c(=O)n2C [AZD7648] (first compound max 1 µM, 7x7, partner max 10 µM) ?
n

====

- Test system: ASH-3 (Thyroid Gland Carcinoma)
- method_description: combination Emax (second highest fraction inhibited in the dose matrix, 72 h); higher = more inhibition; extreme values may be limits of the assay
recorded_endpoint: combination Emax

Known results for compounds:
{"compound": "NC1(C(=O)N[C@@H](CCO)c2ccc(Cl)cc2)CCN(c2ncnc3[nH]ccc23)CC1 [Capivasertib] + Cn1cnc2c(F)c(Nc3ccc(Br)cc3Cl)c(C(=O)NOCCO)cc21 [Selumetinib] (first compound max 10 µM, 7x7, partner max 10 µM)", "measurement_target": "ASH-3 (Thyroid Gland Carcinoma)", "reported_measurement": 0.773}
{"compound": "Cc1c2c(nn1C)CSCc1cc(n(C)n1)CSc1cc(c3ccccc3c1)OCCCc1c(C(=O)O)n(C)c3c-2c(Cl)ccc13 [AZD5991] + Cc1cc2ncnn2cc1Nc1ncc2c(n1)n(C1CCOCC1)c(=O)n2C [AZD7648] (first compound max 1 µM, 7x7, partner max 10 µM)", "measurement_target": "ASH-3 (Thyroid Gland Carcinoma)", "reported_measurement": 0.358}
{"compound": "COc1cccc(OCCCN)c1-c1cc(Nc2cnc(C#N)cn2)n[nH]1 [Prexasertib] + CCc1c2c(nc3ccc(O)cc13)-c1cc3c(c(=O)n1C2)COC(=O)[C@]3(O)CC [SN-38] (first compound max 1 µM, 7x7, partner max 0.3 µM)", "measurement_target": "ASH-3 (Thyroid Gland Carcinoma)", "reported_measurement": 0.989}

Let's switch to this compound now.
Entry under review: C=CCn1c(=O)c2cnc(Nc3ccc(N4CCN(C)CC4)cc3)nc2n1-c1cccc(C(C)(C)O)n1 [AZD1775] + O=C(c1cc(Cc2n[nH]c(=O)c3ccccc23)ccc1F)N1CCN(C(=O)C2CC2)CC1 [Olaparib] (first compound max 1 µM, partner max 10 µM) . Reported combination Emax?
0.262
